Values compiled from PubChem BioAssay (Tox21).

Test system: thyroid hormone receptor (rat, GH3 cells)
Assay Name: qHTS assay to identify small molecule agonists of the thyroid receptor (TR) signaling pathway (AID 743066); further: on the % scale 0 is the no-effect control and ±100 the full control effect
Assay Context: GH3.TRE-Luc cells, TR agonist luciferase, 24 h; series mostly up to 83.9 µM
Records with an inconclusive call do not appear. Active and inactive are the calls of the source. The call rests on the fitted dose curve.

[
  {
    "Compound": "CC(=O)Nc1ccccc1O",
    "activation": "inactive"
  },
  {
    "Compound": "CNc1ccccc1",
    "activation": "inactive"
  },
  {
    "Compound": "O=[N+]([O-])c1ccccc1CCO",
    "activation": "inactive"
  },
  {
    "Compound": "CCCC1CCCC(=O)O1 (stereo not given)",
    "activation": "inactive"
  },
  {
    "Compound": "FC(F)(Cl)C(F)(Cl)Cl",
    "activation": "inactive"
  },
  {
    "Compound": "CC1(C)CC(=O)CC(C)(C)N1",
    "activation": "inactive"
  },
  {
    "Compound": "COc1ccc(C(=O)Nc2ccccc2)cc1[N+](=O)[O-]",
    "activation": "inactive"
  },
  {
    "Compound": "C=C[Si](OCC)(OCC)OCC",
    "activation": "inactive"
  },
  {
    "Compound": "O=P(c1ccccc1)(c1ccccc1)c1ccccc1",
    "activation": "inactive"
  },
  {
    "Compound": "Cc1ccc(S(=O)(=O)NC(=O)NC2CCCC2)cc1",
    "activation": "inactive"
  },
  {
    "Compound": "COc1ccc(CN(CCN(C)C)c2ncccn2)cc1",
    "activation": "inactive"
  },
  {
    "Compound": "O=C(O)c1c2ccccc2cc2ccccc12",
    "activation": "inactive"
  },
  {
    "Compound": "O=C(O)COCC(=O)O",
    "activation": "inactive"
  },
  {
    "Compound": "CC(=O)OCC(=O)[C@@]1(O)CC[C@H]2[C@@H]3CCC4=CC(=O)C=C[C@]4(C)[C@@]3(F)[C@@H](O)C[C@@]21C",
    "activation": "inactive"
  },
  {
    "Compound": "O=C1c2ccccc2C(=O)C1c1ccc2cc(S(=O)(=O)O)cc(S(=O)(=O)O)c2n1",
    "activation": "inactive"
  },
  {
    "Compound": "C=CC(C)CCC=C(C)C (stereo not given)",
    "activation": "inactive"
  },
  {
    "Compound": "OCCOc1cccc(OCCO)c1",
    "activation": "inactive"
  },
  {
    "Compound": "O=C1CCCN1CCO",
    "activation": "inactive"
  },
  {
    "Compound": "C=C(C)C(=O)OCCCCCCCCCCOC(=O)C(=C)C",
    "activation": "inactive"
  },
  {
    "Compound": "CCC1=C(C)CN(C(=O)NCCc2ccc(S(=O)(=O)NC(=O)NC3CCC(C)CC3)cc2)C1=O (stereo not given)",
    "activation": "inactive"
  },
  {
    "Compound": "O=[N+]([O-])c1cccc(I)c1",
    "activation": "inactive"
  },
  {
    "Compound": "O=C1C=CCCC1",
    "activation": "inactive"
  },
  {
    "Compound": "CC(C)(O)C(=O)O",
    "activation": "inactive"
  },
  {
    "Compound": "CCCCCCOC(=O)c1ccccc1",
    "activation": "inactive"
  },
  {
    "Compound": "CCc1c(C)[nH]c2c1C(=O)C(CN1CCOCC1)CC2 (stereo not given)",
    "activation": "inactive"
  },
  {
    "Compound": "CCC(CC)C(=O)O",
    "activation": "inactive"
  },
  {
    "Compound": "NCCOCCOCCN",
    "activation": "inactive"
  },
  {
    "Compound": "CC(=O)S[C@H](C(=O)N[C@H]1Cc2ccccc2[C@H]2CCC[C@@H](C(=O)O)N2C1=O)C(C)C",
    "activation": "inactive"
  },
  {
    "Compound": "C[C@H]1C[C@H]2[C@@H]3CCC4=CC(=O)C=C[C@]4(C)[C@@]3(F)[C@@H](O)C[C@]2(C)[C@@]1(O)C(=O)COP(=O)(O)O",
    "activation": "inactive"
  },
  {
    "Compound": "COc1cc(CNC(=O)CCCC/C=C/C(C)C)ccc1O",
    "activation": "inactive"
  },
  {
    "Compound": "O=C1c2ccccc2C(=O)c2c1ccc(O)c2O",
    "activation": "inactive"
  },
  {
    "Compound": "COc1ccc(C(=O)c2ccc(C)cc2)c(O)c1",
    "activation": "inactive"
  },
  {
    "Compound": "CCCN(C1CCN(C(=O)C2CCNCC2)CC1)[C@@H]1CCc2ccc(OC)cc2C1",
    "activation": "inactive"
  },
  {
    "Compound": "O=[N+]([O-])c1ccc(Cl)cc1Cl",
    "activation": "inactive"
  },
  {
    "Compound": "CC(C)CC(C)(C)C",
    "activation": "inactive"
  },
  {
    "Compound": "CCOC(=O)CC(O)(CC(=O)OCC)C(=O)OCC",
    "activation": "inactive"
  },
  {
    "Compound": "C=CC(=O)NC(C)(C)C",
    "activation": "inactive"
  },
  {
    "Compound": "CC(C)CCCCCCCOC(=O)c1ccc(C(=O)OCCCCCCCC(C)C)c(C(=O)OCCCCCCCC(C)C)c1",
    "activation": "inactive"
  },
  {
    "Compound": "C=CC(O)CCCCC (stereo not given)",
    "activation": "inactive"
  },
  {
    "Compound": "O=C(Cl)c1cc(Cl)cc(Cl)c1",
    "activation": "inactive"
  },
  {
    "Compound": "C/C(=C(\\CCO)SS/C(CCO)=C(\\C)N(C=O)Cc1cnc(C)nc1N)N(C=O)Cc1cnc(C)nc1N",
    "activation": "inactive"
  },
  {
    "Compound": "Clc1cc(Cl)c2c(c1)N=C1CCCCCN1C2",
    "activation": "inactive"
  },
  {
    "Compound": "O=Cc1ccc([N+](=O)[O-])cc1",
    "activation": "inactive"
  },
  {
    "Compound": "CCCOC(C)=O",
    "activation": "inactive"
  },
  {
    "Compound": "CCCCCCCCCCCCCCCCCCCl",
    "activation": "7.57% [at 8.08 µM] (inactive)"
  },
  {
    "Compound": "CC(C(=O)O)c1ccc(/C=C2\\CCCCC2=O)cc1 (stereo not given)",
    "activation": "inactive"
  },
  {
    "Compound": "O=C(O)c1ccc2cc(O)ccc2c1",
    "activation": "inactive"
  },
  {
    "Compound": "CC(C)(C)NCC(O)COc1ccc(NC(=O)NC2CCCCC2)cc1 (stereo not given)",
    "activation": "inactive"
  },
  {
    "Compound": "CCOc1ccc(NC(C)=O)cc1N",
    "activation": "inactive"
  },
  {
    "Compound": "C[C@]12CCC(=O)C=C1[C@@H]1C[C@@H]1[C@H]1[C@@H]3[C@@H]4C[C@@H]4[C@@]4(CCC(=O)O4)[C@@]3(C)CC[C@@H]12",
    "activation": "inactive"
  },
  {
    "Compound": "CC(CCl)OC(C)CCl (stereo not given)",
    "activation": "inactive"
  },
  {
    "Compound": "CCCCCCC/C=C/C=O",
    "activation": "inactive"
  },
  {
    "Compound": "CCCCCC1CCC(=O)O1 (stereo not given)",
    "activation": "inactive"
  },
  {
    "Compound": "O=c1[nH][nH]c2ccccc12",
    "activation": "inactive"
  },
  {
    "Compound": "CC(C)(C)c1ccc(CCC=O)cc1",
    "activation": "inactive"
  }
]

====

Assay Name: Caspase-3/7 induction in HepG2 cells by small molecules, qHTS cell viability counter screen (AID 1346981); further: nearly all actives have a fitted effect of over 30% in size
Assay Context: CellTiter-Fluor fluorescence, 17 h; series mostly up to 92.4 µM
Records with an inconclusive call do not appear. Activity calls are given as the source filed them. Calls follow the shape of the dose curve; as a rule, active = well fitted cell-killing curve with a large enough effect in the repeat runs; inconclusive = weak or mixed curves, or effect the other way; inactive = flat fitted curve, though single readings scatter.
Outcome codes: active, inactive

[
  {
    "Smiles Input": "Nc1nc(Cl)nc2c1ncn2[C@H]1C[C@H](O)[C@@H](CO)O1",
    "Answer Label": "inactive"
  },
  {
    "Smiles Input": "C=CCCC",
    "Answer Label": "inactive"
  },
  {
    "Smiles Input": "COC(=O)c1cc(Cl)ccc1[N+](=O)[O-]",
    "Answer Label": "inactive"
  },
  {
    "Smiles Input": "CC1(C)CC(O)CC(C)(C)N1[O]",
    "Answer Label": "inactive"
  },
  {
    "Smiles Input": "O=C1c2ccccc2C(=O)C1c1ccc2cc(S(=O)(=O)O)cc(S(=O)(=O)O)c2n1",
    "Answer Label": "active"
  },
  {
    "Smiles Input": "CCCCCCCCCCCC(=O)OCC",
    "Answer Label": "inactive"
  },
  {
    "Smiles Input": "Clc1nc2ccccc2nc1Cl",
    "Answer Label": "inactive"
  }
]
